# System: COLO 205
# Procedure Details: NCI tumour cell line growth inhibition, 48 h
Calls of active or inactive are those of the source. Cut-off read from the data, not from the text of the source: active = GI50 up to about 1.1 µM and inactive = higher.
Measured Attribute: GI50

{"Compound": "CC1(c2cccc(N)c2)C2C(=O)NC(=O)C1C(=O)NC2=O (stereo not drawn)", "GI50": "23.7 µM (inactive)"}
{"Compound": "COc1cc(C=O)c(-c2cc3c(cc2C=O)OCO3)c(OC)c1OC", "GI50": "92.5 µM (inactive)"}
{"Compound": "Nc1ncnc2c1ncn2C1C(O)C=C(CO)C1O (stereo not drawn)", "GI50": "> 625 µM (inactive)"}
{"Compound": "CC1C(=O)OCC2=CCN3CCC(OC(=O)C(C)C1(C)O)C23 (stereo not drawn)", "GI50": "> 100 µM (inactive)"}
{"Compound": "COc1ccc(NC(=O)C(=O)NNC(=O)c2sc(NNC(C)=O)nc2C)c([N+](=O)[O-])c1", "GI50": "> 100 µM (inactive)"}
{"Compound": "Cc1cc(CN2CCCCC2)c(O)c(CN2CCCCC2)c1", "GI50": "> 100 µM (inactive)"}

[ask] Request - read-out GI50 | tested on COLO 205 | compound `Cc1ccc2c(O)cc(-c3cc4ccccc4s3)nc2n1`
[reply] > 100 µM (inactive)

[ask] Request - read-out GI50 | tested on COLO 205 | compound `OCc1cc2c(cn1)[nH]c1ccc(NCc3ccccc3)cc12`
[reply] 17.7 µM (inactive)

[ask] Request - read-out GI50 | tested on COLO 205 | compound `CN(C)CCCNC(=S)S`
[reply] > 100 µM (inactive)

[ask] Request - read-out GI50 | tested on COLO 205 | compound `O=C(O)CN1CCN2CCOCCN(CC1)CCN(CC(=O)O)CC2`
[reply] > 100 µM (inactive)

[ask] Request - read-out GI50 | tested on COLO 205 | compound Clc1ccccc1C1N2CCCCC2[C@@H]2c3[nH]c4ccccc4c3CCN12 (stereo partly drawn)
[reply] 19.3 µM (inactive)

[ask] Request - read-out GI50 | tested on COLO 205 | compound `Cc1c2ccnc(O)c2cc2c(=O)c3cnccc3[nH]c12`
[reply] > 100 µM (inactive)

[ask] Request - read-out GI50 | tested on COLO 205 | compound CC1(C)CCCCCCC2OC2CCCCCC(C)(C)C1=O (stereo not drawn)
[reply] 14.4 µM (inactive)

[ask] Request - read-out GI50 | tested on COLO 205 | compound O=C1NC(=O)C2C(=O)NC(=O)C1C2c1c(Cl)cccc1Cl (stereo not drawn)
[reply] > 41.8 µM (inactive)

[ask] Request - read-out GI50 | tested on COLO 205 | compound `CC1=NN(C(=O)Cc2ccccc2)C(=O)/C1=C\c1ccc([N+](=O)[O-])cc1`
[reply] > 100 µM (inactive)

[ask] Request - read-out GI50 | tested on COLO 205 | compound `Nc1ccc(Oc2ccc(C3(c4ccc(Oc5ccc(N)c(O)c5)cc4)C4CC5C6CC7CC5C3C(C7)C6C4)cc2)cc1O`
[reply] 2.37 µM (inactive)

[ask] Request - read-out GI50 | tested on COLO 205 | compound `S=C(NN=C1NCCCN1)Nc1ccccc1`
[reply] > 100 µM (inactive)

[ask] Request - read-out GI50 | tested on COLO 205 | compound `O=c1oc2ccccc2c(Nc2ccc3c(c2)Sc2ccccc2O3)c1[N+](=O)[O-]`
[reply] 16.3 µM (inactive)

[ask] Request - read-out GI50 | tested on COLO 205 | compound `CCOC(=O)C(=C(SC)SC)c1nn2c(=O)cc(C)nc2s1`
[reply] 18.6 µM (inactive)

[ask] Request - read-out GI50 | tested on COLO 205 | compound `Cc1nn(-c2ccccc2)c2c1N=C(C(=O)O)CC(c1ccccc1)=N2`
[reply] > 10 µM (inactive)

[ask] Request - read-out GI50 | tested on COLO 205 | compound O=C1OC(OC/C(Br)=C(/Br)COC2OC(=O)C(Cl)=C2Cl)C(Cl)=C1Cl (stereo not drawn)
[reply] 4.29 µM (inactive)

[ask] Request - read-out GI50 | tested on COLO 205 | compound `O=c1oc2ccccc2c(-c2ccc(O)cc2)c1Oc1ccccc1`
[reply] 29.4 µM (inactive)

[ask] Request - read-out GI50 | tested on COLO 205 | compound O=C1/C(=C/C=C/c2ccccc2)CCC1CNc1ccccc1 (stereo not drawn)
[reply] 28.9 µM (inactive)
